Recorded RI (resistance index) by entry
test system: LoVo/DX (human colon adenocarcinoma, resistant to doxorubicin); assay: SRB antiproliferative assay, 72 h exposure; resistance index; assay type: cell-based; settings: IC50 against LoVo/DX divided by IC50 against LoVo
Answer with a bare number; do not write a unit.

molecule=Cc1nsc(Cl)c1C(=O)N/N=C/c1cccc(Cl)c1 quantityname="RI (resistance index)" observedresult=0.81
molecule=Cc1nsc(Cl)c1C(=O)N/N=C/C=C/c1ccccc1 quantityname="RI (resistance index)" observedresult=1.37

Documented RI (resistance index) of "COc1cccc(/C=N/NC(=O)c2c(C)nsc2Cl)c1" : 0.72

The molecule listed as N.N.[Cl][Pt][Cl] [Cisplatin, reference compound] has a reported RI (resistance index) of 0.49

Short answer for "Cc1nsc(Cl)c1C(=O)N/N=C/c1cccc([N+](=O)[O-])c1" : RI (resistance index) was 1.29

// RI (resistance index) lookup, molecule = "CCc1ccc(/C=N/NC(=O)c2c(C)nsc2Cl)cc1" , result: 0.91
